measured_target: T1, corticotropin releasing factor 2 receptor
T1 sequence (Q13324 whole entry, species assumed, looked up): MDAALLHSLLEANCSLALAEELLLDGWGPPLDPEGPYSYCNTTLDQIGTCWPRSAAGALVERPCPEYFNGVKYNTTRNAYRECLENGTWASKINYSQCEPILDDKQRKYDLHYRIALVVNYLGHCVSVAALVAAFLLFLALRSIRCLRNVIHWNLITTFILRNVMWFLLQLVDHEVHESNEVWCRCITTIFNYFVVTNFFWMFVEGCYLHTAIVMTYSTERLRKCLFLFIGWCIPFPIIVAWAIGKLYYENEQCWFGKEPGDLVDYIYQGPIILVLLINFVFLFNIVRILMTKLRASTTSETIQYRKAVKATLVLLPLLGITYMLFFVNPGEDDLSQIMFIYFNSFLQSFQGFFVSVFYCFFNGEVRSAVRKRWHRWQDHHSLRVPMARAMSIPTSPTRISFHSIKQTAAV
method: cell-based or functional assay
Ends that are not written are not given here.
endpoint_label: CRF2R EC50 (nM)

# binder, u, inequality_operator, experimental_result
measured = [
    ("DNPSLSIDLPFYLLRTLLELARTQSQRERAEQNAIIFASV-NH2 [SEQ ID NO 183]", "nM", "=", 7.93),
    ("ZGPPISIDLPLQLLRKMIEIEKQEKEKQQAANNRLLLDTI (C-terminal amide) [SEQ ID NO 80]", "nM", "=", 6.53),
    ("ZGPPISIDLPFQLLRKMIEIEKQEKEKQQATNNRLLLATV (C-terminal amide) [SEQ ID NO 12]", "nM", "=", 9.72),
    ("IVLSLDVPIGLLQILLEQERAEAAREQATTNARILARV-NH2 [SEQ ID NO 113]", "nM", "=", 11.3),
    ("IVLSLDVPIGLLQILLEQARARAAREQATSNRKLMEII-NH2 [SEQ ID NO 163]", "nM", "=", 4.49),
    ("IVLSLDVPIGLLQILLEQAKARAAREQATTNARILARV-NH2 [SEQ ID NO 109]", "nM", "=", 11.8),
    ("ZGPPISIDLPLVLLRKMIEIEKQEKEKQQAANNRLLLDTI (C-terminal amide) [SEQ ID NO 193]", "nM", "=", 10.1),
    ("ZGPPISIDLPTSLLRKMIEIEKQEKEKQQAANNRLLLDTI (C-terminal amide) [SEQ ID NO 43]", "nM", ">", 100),
    ("IVLSLDVPIGLLQILLEQEKQEAAREQATTNARILARV-NH2 [SEQ ID NO 125]", "nM", "=", 4.47),
    ("ZGPPISIDLPFQLLRKMIEIEKQEKEKQQATTNRLLLATV (C-terminal amide) [SEQ ID NO 17]", "nM", "=", 10.2),
    ("DNPSLSIDLPLYLLRTLLELARTQSQRERAEQNAIIFASV-NH2 [SEQ ID NO 177]", "nM", "=", 5.63),
    ("IVLSLDVPIGLLQILLEQTKADQLAQQAHSNRKLLDIA-NH2 [SEQ ID NO 159]", "nM", "=", 90.8),
]
